protocol-conditions: in water, 323.2 K

| molecule | solubility (mole fraction) |
| --- | --- |
| O=C(O)CC(O)C(=O)O (stereo unspecified) | 0.154 |

====

protocol-conditions: in water, 333.2 K

| compound | solubility (mole fraction) |
| --- | --- |
| O=C(O)CC(O)C(=O)O (stereo unspecified) | 0.184 |

====

protocol-conditions: in ethanol, 318.2 K

| compound | solubility (mole fraction) |
| --- | --- |
| O=C(O)CC(O)C(=O)O (stereo unspecified) | 0.115 |

====

protocol-conditions: in THF, 318.2 K

| compound | solubility (mole fraction) |
| --- | --- |
| O=C(O)CC(O)C(=O)O (stereo unspecified) | 0.199 |
